Test system: HT-29
Assay: Cytotoxicity against human HT-29 cells assessed as inhibition of cell proliferation incubated for 48 hrs by MTT assay
Assay type: functional, cell-based
Conditions: HT-29, 48 h
VALUE KIND: pIC50
# pIC50 is unitless: minus log10 of the molar concentration; print number only

query: Please tell me: pIC50 of `CC[C@H](C)[C@H]1NC(=O)[C@@H](CC(C)C)NC(=O)[C@@H](CC(C)C)N(C)C(=O)[C@@H]2CCCN2C(=O)[C@H](CC(C)C)NC(=O)[C@H](Cc2ccccc2)OC(=O)[C@@H]2CCCN2C1=O` , system HT-29?
result: 5.60

---

Tested on: NCI-H1299
Test: Cytotoxicity against human NCI-H1299 cells assessed as inhibition of cell proliferation incubated for 48 hrs by MTT assay
Type: functional, cell-based
Conditions: NCI-H1299, 48 h
VALUE KIND: pIC50
# pIC50 is unitless: minus log10 of the molar concentration; print number only

query: Please tell me: pIC50 of `CC[C@H](C)[C@H]1NC(=O)[C@@H](CC(C)C)NC(=O)[C@@H](CC(C)C)N(C)C(=O)[C@@H]2CCCN2C(=O)[C@H](CC(C)C)NC(=O)[C@H](Cc2ccccc2)OC(=O)[C@@H]2CCCN2C1=O` , system NCI-H1299?
result: 5.60

---

Experiment: Selectivity ratio of IC50 for cytotoxicity against human HMLE cells to IC50 for cytotoxicity against human BT-549 cells
Assay type: toxicity, cell-based
Details: HMLE cells and BT-549 cells, read-out: Ratio IC50
VALUE KIND: selectivity ratio

query: # query: selectivity ratio of entry `CC[C@H](C)[C@H]1NC(=O)[C@@H](CC(C)C)NC(=O)[C@@H](CC(C)C)N(C)C(=O)[C@@H]2CCCN2C(=O)[C@H](CC(C)C)NC(=O)[C@H](Cc2ccccc2)OC(=O)[C@@H]2CCCN2C1=O`
result: 3

---

Test: Cytotoxicity against human HMLE cells assessed as inhibition of cell proliferation incubated for 48 hrs by MTT assay
Assay type: toxicity, cell-based
VALUE KIND: IC50 at 48 h
State the value, then name its unit.

query: # query: IC50 at 48 h of entry `CC[C@H](C)[C@H]1NC(=O)[C@@H](CC(C)C)NC(=O)[C@@H](CC(C)C)N(C)C(=O)[C@@H]2CCCN2C(=O)[C@H](CC(C)C)NC(=O)[C@H](Cc2ccccc2)OC(=O)[C@@H]2CCCN2C1=O`
result: 7.3 µM
